Exercise: for every item that follows, state its recorded max response.
Experiment: qHTS Assay for Lipid Storage Modulators (AID 1519)
Conditions: Drosophila S3 cells, BODIPY lipid droplet/cell ratio, laser cytometry; measured here: lipid channel max response; cells loaded with oleic acid
Records with an inconclusive call do not appear.
Give bare numbers, in %.

Here are 10 compounds together with their reported answers.
[Q] Fill blank: measured max response of the compound `CC1=C(/C=C/C(C)=C/C=C/C(C)=C/C(=O)O)C(C)(C)CCC1` is ____.
[A] -7.9

[Q] max response lookup needed for `CCCCN1CCCC[C@H]1C(=O)Nc1c(C)cccc1C` , thanks.
[A] 9.64

[Q] Which max response value is on record for `NC(=O)N/N=C/c1ccc([N+](=O)[O-])o1` ?
[A] -28

[Q] Give the measured max response of `O=c1cc[nH]c(=S)[nH]1` .
[A] 29.2

[Q] Query (compound): `C[C@](N)(Cc1ccc(O)cc1)C(=O)O` ; field requested: max response
[A] 13.3

[Q] Which max response value is on record for `CC1(C)[C@@H]2CC[C@@]1(C)C(=O)C2` ?
[A] -6.29

[Q] Entry `CN(C)CC[C@@H](c1ccc(Cl)cc1)c1ccccn1` : reported max response = ?
[A] 34.2

[Q] GET /values?readout=max response&item= `CN(C)CCN(Cc1ccccc1)c1ccccn1`
[A] 16.2

[Q] Fill blank: measured max response of the compound CC(COc1ccccc1)NC(C)C(O)c1ccc(O)cc1 (centres undefined) is ____.
[A] 8.74

[Q] Quick one: max response of `N=c1c[n+](N2CCOCC2)[n-]o1` ?
[A] 27.5

Fill in max response for each of the 4 compounds listed.
1. C[C@H]1O[C@@H](n2cc(F)c(=O)[nH]c2=O)[C@H](O)[C@@H]1O
2. O=c1cc(CO)occ1O
3. Cc1cc2c(cc1S(N)(=O)=O)S(=O)(=O)CCC2
4. COc1ccc2c(c1)C(=O)N(CCc1ccc(S(=O)(=O)NC(=O)NC3CCCCC3)cc1)C(=O)C2(C)C

[A]
[39.7, 26.9, 1.67, -23.3]

Dear colleague, could you please provide max response for the compounds listed below?
1. C#CCN(C)Cc1ccccc1
2. CC1=C(CC(=O)O)c2cc(F)ccc2/C1=C\c1ccc(S(C)=O)cc1 (centres undefined)

[A]
[-13.8, -7.15]

Provide the reported max response of each entry below, same order.
1. CCCCOc1cc(C(=O)OCCN(CC)CC)ccc1N
2. CCCCCCCCCCCCCCCCCCOCC(O)CO (centres undefined)
3. OCc1cc(C(O)CNCCCCCCOCCCCc2ccccc2)ccc1O (centres undefined)
4. CN1CCN(C2Cc3ccccc3Sc3ccc(Cl)cc32)CC1 (centres undefined)
5. C=Cc1c(C)c2cc3[nH]c(cc4nc(cc5nc(cc1[nH]2)C(C)=C5CCC(=O)O)C(CCC(=O)O)=C4C)c(C)c3C=C

[A]
1: -14; 2: 19.9; 3: 10.1; 4: -9.31; 5: 21.3

Go through the list and state max response for each entry.
1. CCOc1ccc2ccccc2c1C(=O)N[C@@H]1C(=O)N2[C@@H]1SC(C)(C)[C@@H]2C(=O)O
2. NS(=O)(=O)c1cc2c(cc1C(F)(F)F)NC(Cc1ccccc1)NS2(=O)=O (centres undefined)

[A]
-15.1
10.5

[Q] # input compound: CN(C)CCOC(C)(c1ccccc1)c1ccccn1 (centres undefined) ; wanted: its max response
[A] -9.47
